Cited source for all entries: patent US20230068663A1

# Study system: T1, LILRB5
# T1 construct: also called LILRB5 reporter cells; not shown: transmembrane/intracellular domains of PILRb, the display part of the chimeric reporter receptor
# T1 sequence (chain, as listed by the source limits assumed): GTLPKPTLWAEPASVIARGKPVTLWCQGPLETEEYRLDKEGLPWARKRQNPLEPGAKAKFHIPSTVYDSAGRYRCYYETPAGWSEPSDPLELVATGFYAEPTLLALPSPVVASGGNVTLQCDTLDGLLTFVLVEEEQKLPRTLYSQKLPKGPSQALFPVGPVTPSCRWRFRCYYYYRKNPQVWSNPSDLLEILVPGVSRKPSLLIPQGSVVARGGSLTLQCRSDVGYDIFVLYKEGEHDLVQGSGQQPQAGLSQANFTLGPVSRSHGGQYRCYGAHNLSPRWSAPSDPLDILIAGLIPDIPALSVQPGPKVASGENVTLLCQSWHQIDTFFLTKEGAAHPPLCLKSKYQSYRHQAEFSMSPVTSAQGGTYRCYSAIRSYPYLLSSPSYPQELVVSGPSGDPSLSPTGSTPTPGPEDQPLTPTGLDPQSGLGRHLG
# Protocol summary: flow cytometry, reporter cells
Measured parameter: binding result

B2-7 (antibody, V domains shown, also called B2-7_HC; B2-7_LC) VH: EVQLVESGGGVVQPGRSLRLSCAASGFTISSYGMHWVRQAPGKGLEWVAVISYDGSNKYYADSVKGRFTISRDNSKNTLYLQMNSLRVEDTAVYYCAKDLLLRYFDWSPKYYYNGMDVWGQGTMVTVSS VL: QSVLTQPPSVSVAPGKTARITCGGNNIGSKSVHWYQQKPGQAPVLVVYDDSDRPSGIPERFSGSNSGNTATLTISRVEAGDEADYYCQVWDSSSDHPGVFGTGTKVTVL | no binding
B2-15 (antibody, V domains shown, also called B-15; B2-15_HC) VH: EVQLVQSGAEVKKSGASVKVSCKSSGYTFTNYGISWVRQAPGQGLEWMGWISGDAGDTKFAQKFQGRVTMTTDTSTTTTYMELRSLRSDDTAVYYCARDGEYIPMFRGFDNYYGLDVWGQGTLVSVSS VL: QSVLTQPPSASATPGQRVTISCSGRNANIGSNPVNWYQQLPGTAPRLVMYSNNQRPSGVPDRFSGSKSGTSASLAISGLQSEDEADYYCEGWDDSLNGYVFGTGTKVTVL | no binding
B2-17 (antibody, V domains shown, also called B2-17_HC; B2-17_LC) VH: EVQLLDSGPRLLKPSETLSLTCGVSGVSTSSTHWWSWVRQTPGKGLEWIGEILHNGNTNSNPSLKSRVSMSIDKSRNQFSLQLKSMTAADTAVYYCASASPNWGASGAFDAWAQGTMVTVSS VL: QSVLTQPPSASATPGQRVTISCSGSSSNIGSNPVNWYQQVPGMAPELVMYSDNQRPSGVPDRFSGSNSGTSASLAISGLQSEDEADYYCSTWDDSLNGLVFGTGTKVTVL | no binding
